System: K4 kissing-loop RNA reporter;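 also: bound reporter read as fluorescence of individual clusters on recovered sequencing chips by microscopy, with normalized cluster intensities fitted with a binding model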
PROTOCOL DESCRIPTION: apparent KD of K4 kissing-loop reporter; higher = weaker reporter binding
TEST CONTEXT: Eterna round: R107; input ligand: arginine 13.2 mM
Categorized via apparent KD of K4 kissing-loop reporter: low: < 200 nM; intermediate: ≥ 200 nM and < 300 nM; high: ≥ 300 nM

Category lookup for the sequence AAACAUUGGUCUGAUACCAGCUGAUCGGAAACGAUCUUGCUGGAGUGAUGUUCCAGGAAAAGCCCUUGGCAGCAGACCGAUGAAA [MAT - Same State Theophlline B - Mod of Eli - D24]
high

The entry to classify is GCAGGAUGAGGAGGAGGAUGAAUUACUGAAGGAGCGCAUAUUUUUGCAGGUAGGUCGCGGUAAAGAAGUAUAGUGAUGUUAUAUA [SSArgA.K] ; which class holds it?
intermediate

Into which category would you place GGAUAGGAUAGAGGAUAUGGUUUAGGCAAGAAUAACUUGUCAUGUAAAUCCAUGAGGAGUGAUGUUCCAGAAGGCUGUCCUAUCG [MatMod 8 - Jieux - Exclusion - FMN B] ?
low

Band for the recorded apparent KD of K4 kissing-loop reporter of AAACAUUGGUCUGAUACCAGUUAGACCGAUAGGUCAAAACUGGAGUGAUGUUCCUAAAAUAACCCUUGGCAGCAGACCGAUGAAA [MAT - Same State Theophlline B - Mod of Eli - D4] ?
intermediate

# bin lookup: classify CCAUCGCUAUUCGAUACCAGCUACUUAGUGAUGUUAAGUUAAAAUCCAUUGUAGAUGGAAAGCCCUUGGCAGCGAAUAGUGAUGG [Theophylline B K4 22] by its apparent KD of K4 kissing-loop reporter
high

Class for UUCCGGGCCGAAGGAUAUUGGAGUGAUGUUUCAAGACGUUCGUCCCAGCCCAUAGUAACUAUCGCCCAAGAAGGUCGUAUUGAAU [theeternabot_exclusion_KL_FMN_B_13] ?
low

# bin label for AGUAAUGUCACGGCCGCCACUCUUUAUUGUUUUUAUAGUUAUAAAUCUUGCCAGUGAUGUUGGUAGAGGACCGGGUGACUUAAUA [#26 K4 Tryptophan B Same State]
intermediate

Entry CUCGAGUGAUGUUCGACGCGUCCGUACGAUACCAGCGUAGACCGUCGCCCUUGGCAGCGUGAUGCAGCCCGAAAGUCCGGUUCCU [theeternabot_sameState_KL_Theo_A_26] belongs to which category?
high

Which class holds UGUACCGAGUCAGGAUAUCAUAAUAAAUGCAGUGAUGUUGCAAUAACCAGUACAAAAGUGCUGGAUUGAGAAGGGACUUGGUACU [FmnBS 5 #SwitchBubble #StaticStem] ?
low

Hi there! Could you help me figure out the category for UCACAGUCCAAAGGAUAUUGAGUGCGCGUGCGAUUUAAGCUGAAGCCGUAGCUAGUGAUGUUAGCCCAAGAAGGUUGGUAGCCAG [theeternabot_exclusion_KL_FMN_B_16] please?
low

Source: the supplement of paper PMC9170038
